- Tested on: Primary human epidermal keratinocytes, HeKa
- protocol.notes: HeKa cytokine release (IL-8) assay
- Assay type: cell-based
- condition.info: 6 h, read-out: HeKa cytokine release (IL-8) Rel EC50 range
pEC50: −log10 of the molar value.
experimental.readout: pEC50

Consider the following illustrative entries.
CC1=C[C@]23C(=O)[C@@H](C=C(CO)[C@@H](O)[C@]2(O)[C@H]1OC(=O)c1c(C)cccc1N)[C@H]1[C@@H](C[C@H]3C)C1(C)C [Compound 335, Ingenol 3-(2-amino-6-methyl-benzoate)] = > 7.70
CC1=C[C@]23C(=O)[C@@H](C=C(CO)[C@@H](O)[C@]2(O)[C@H]1OC(=O)C1=C(C)CCCC1(C)C)[C@H]1[C@@H](C[C@H]3C)C1(C)C = > 7.70
CC1=C[C@]23C(=O)[C@@H](C=C(CO)[C@@H](O)[C@]2(O)[C@H]1OC(=O)c1cccc2ccccc12)[C@H]1[C@@H](C[C@H]3C)C1(C)C [Compound 319, Ingenol 3-(naphthalene-1-carboxylate)] = > 7.70

Next up:
Req: Please report the recorded pEC50 for CC1=C[C@]23C(=O)[C@@H](C=C(CO)[C@@H](O)[C@]2(O)[C@H]1OC(=O)C1=CCCCC1)[C@H]1[C@@H](C[C@H]3C)C1(C)C [Compound 305, Ingenol 3-(cyclohexene-1-carboxylate)] .
Resp: > 7.70

----------
- System: Primary human epidermal keratinocytes, HeKa
- protocol.notes: HeKa cytokine release (IL-8) assay
- Assay type: cell-based
- condition.info: 6 h, read-out: HeKa cytokine release (IL-8) Rel EC50 range
experimental.readout: EC50

Consider the following illustrative entries.
CC1=C[C@]23C(=O)[C@@H](C=C(CO)[C@@H](O)[C@]2(O)[C@H]1OC(=O)C1CCCCC1)[C@H]1[C@@H](C[C@H]3C)C1(C)C [Compound 302, Ingenol 3-(cyclohexanecarboxylate)] = 20 to 100 nM
CC1=C[C@]23C(=O)[C@@H](C=C(CO)[C@@H](O)[C@]2(O)[C@H]1OC(=O)C1CCC1)[C@H]1[C@@H](C[C@H]3C)C1(C)C [Compound 303, Ingenol 3-(cyclobutanecarboxylate)] = > 100 nM
CC1=C[C@]23C(=O)[C@@H](C=C(CO)[C@@H](O)[C@]2(O)[C@H]1OC(=O)c1c(Cl)cc(Cl)cc1Cl)[C@H]1[C@@H](C[C@H]3C)C1(C)C [Compound 318, Ingenol 3-(2,4,6-trichloro-benzoate)] = < 20 nM

Next up:
Req: Please report the recorded EC50 for CC1=C[C@]23C(=O)[C@@H](C=C(CO)[C@@H](O)[C@]2(O)[C@H]1OC(=O)c1ccccc1-c1ccccc1)[C@H]1[C@@H](C[C@H]3C)C1(C)C [Compound 320, Ingenol 3-(2-phenyl-benzoate)] .
Resp: < 20 nM

----------
- System: Primary human epidermal keratinocytes, HeKa
- protocol.notes: HeKa cytokine release (IL-8) assay
- Assay type: cell-based
- condition.info: 6 h, read-out: HeKa cytokine release (IL-8) Rel EC50 range
- Experimental: Primary human epidermal keratinocytes, HeKa, were seeded (10.000 cells/well) in 96-well plates the day before the assay. […] Plates are centrifuged briefly to spin down cells at 4° C., the supernatant was removed and analysed by Meso Scale Discovery (MSD) 4-spot cytokine assay (Pro-inflammatory II Ultra Sensitive kit, MSD, MD, USA). […] The cytokine level was quantitated on a SECTOR™ Imager using a cytokine-specific Detection Antibody labelled with MSD SULFO-TAG™ reagent. […]
experimental.readout: EC50

Consider the following illustrative entries.
CC1=C[C@]23C(=O)[C@@H](C=C(CO)[C@@H](O)[C@]2(O)[C@H]1OC(=O)c1c(C)cccc1C)[C@H]1[C@@H](C[C@H]3C)C1(C)C [Compound 315, Ingenol 3-(2,6-dimethyl-benzoate)] = 20 to 100 nM
CC1=C[C@]23C(=O)[C@@H](C=C(CO)[C@@H](O)[C@]2(O)[C@H]1OC(=O)c1ccccc1NCc1ccccc1)[C@H]1[C@@H](C[C@H]3C)C1(C)C [Compound 331, Ingenol 3-(2-benzylamino-benzoate)] = < 20 nM

Next up:
Req: Please report the recorded EC50 for COC(=O)C1(C(=O)O[C@H]2C(C)=C[C@]34C(=O)[C@@H](C=C(CO)[C@@H](O)[C@]23O)[C@H]2[C@@H](C[C@H]4C)C2(C)C)CC1 .
Resp: > 100 nM
